- ASSAY PROCEDURE: Volume of distribution at steady state in Beagle dog at 1.0 mg/kg, po and 1.0 mg/kg, iv administered as single dose
- Type: ADME, organism-based, Canis lupus familiaris
- EXPERIMENTAL PARAMETERS: in vivo, read-out: Vdss
READOUT TYPE: Vd (L/kg)

>>> assay_result("N#CC1(NC(=O)[C@@H]2CCCC[C@H]2C(=O)N2CCc3[nH]c4ccc(F)cc4c3C2)CC1")
1.2

[a] COc1cccc2c3c([nH]c12)CCN(C(=O)[C@@H]1CCCC[C@H]1C(=O)NC1(C#N)CC1)C3
[b] N#CC1(NC(=O)[C@@H]2CCCC[C@H]2C(=O)N2CCc3[nH]c4ncccc4c3C2)CC1
Prompt: Please indicate which entry, a or b , has the lower recorded Vd value. Lab log: write the label of the selected item as the result.
Completion: b

###

- SYSTEM TESTED: UniProt P07858
- ASSAY PROCEDURE: Inhibition of human recombinant CatB assessed as suppression of enzyme-mediated Z-Arg-Arg-AMC cleavage by QFRET assay
pIC50: −log10 of the molar value.
READOUT TYPE: pIC50

>>> assay_result("CS(=O)(=O)c1ccc2[nH]c3c(c2c1)CN(C(=O)[C@@H]1CCCC[C@H]1C(=O)NC1(C#N)CC1)CC3")
"< 5.54"
>>> assay_result("N#CC1(NC(=O)[C@@H]2CCCC[C@H]2C(=O)N2CCc3[nH]c4cccc(F)c4c3C2)CC1")
"< 5.54"
>>> assay_result("N#CC1(NC(=O)[C@@H]2CCCC[C@H]2C(=O)N2CCc3[nH]c4ccccc4c3C2)CC1")
"< 5.54"
>>> assay_result("CS(=O)(=O)c1cccc2c3c([nH]c12)CCN(C(=O)[C@@H]1CCCC[C@H]1C(=O)NC1(C#N)CC1)C3")
"< 5.54"
>>> assay_result("CSc1cccc2c3c([nH]c12)CCN(C(=O)[C@@H]1CCCC[C@H]1C(=O)NC1(C#N)CC1)C3")
"< 5.54"

Kindly review the next compound as well.
Prompt: # return pIC50 of CCOc1cccc2c3c([nH]c12)CCN(C(=O)[C@@H]1CCCC[C@H]1C(=O)NC1(C#N)CC1)C3 (system: UniProt P07858)
Completion: < 5.54

###

- SYSTEM TESTED: Procathepsin L (Homo sapiens, UniProt P07711)
- Sequence (P07711 whole entry): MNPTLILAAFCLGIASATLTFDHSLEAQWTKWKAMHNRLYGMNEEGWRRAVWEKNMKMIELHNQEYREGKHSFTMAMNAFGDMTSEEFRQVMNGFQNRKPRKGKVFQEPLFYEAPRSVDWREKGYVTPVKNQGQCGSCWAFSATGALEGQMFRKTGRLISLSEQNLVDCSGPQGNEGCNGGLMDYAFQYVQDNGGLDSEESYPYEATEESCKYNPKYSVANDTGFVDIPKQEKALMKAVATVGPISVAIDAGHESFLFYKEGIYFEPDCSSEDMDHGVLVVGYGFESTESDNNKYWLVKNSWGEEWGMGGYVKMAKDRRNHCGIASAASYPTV
- ASSAY PROCEDURE: Inhibition of human recombinant CatL assessed as suppression of enzyme-mediated Z-Phe-Arg-AMC cleavage by QFRET assay
- EXPERIMENTAL PARAMETERS: read-out: IC50
READOUT TYPE: IC50

Here's what some known entries look like.
>>> assay_result("CN1CCN(C(=O)[C@@H]2CCCC[C@H]2C(=O)NCC#N)CC1")
"> 40 µM"
>>> assay_result("N#CCNC(=O)[C@@H]1CCCC[C@H]1C(=O)N1CCCCC1")
"> 100 µM"
>>> assay_result("N#CCNC(=O)[C@@H]1CCCC[C@H]1C(=O)N1CCc2[nH]c3ccc(F)cc3c2C1")
"> 40 µM"
>>> assay_result("N#CCNC(=O)[C@@H]1CCCC[C@H]1C(=O)N1CC=CCC1")
"> 100 µM"

Now for a further compound.
Prompt: Tell us which IC50 value is on record for N#CCNC(=O)[C@@H]1CCCC[C@H]1C(=O)N1CCN(c2ccccc2)CC1
Completion: > 100 µM
